ASSAY: in vivo
ASSAY_CONTEXT: male, cynomolgus monkey, po, 10 mg/kg
Below, each entry is listed alongside its reported AUC(0-t).
Value expressed in ng·h/mL; do not type the unit.

Challenge: Form field: reported AUC(0-t) of "[2H]C([2H])([2H])N1CCC(n2cc(-c3cnc(N)c(OCc4cccc(C#CC(C)(C)O)c4)c3)cn2)CC1"
Response given: 1760

Shifting focus to the compound that follows.
Challenge: Form field: reported AUC(0-t) of CN1CCC(n2cc(-c3cnc(N)c(OCc4cccc(C#CC(C)(C)O)c4)c3)cn2)CC1 [Compound A1, reference compound]
Response given: 388

* * *

Below, each entry is listed alongside its reported clearance.
ASSAY: in vivo
ASSAY_CONTEXT: male, cynomolgus monkey, iv, 1 mg/kg

Challenge: Form field: reported clearance of [2H]C([2H])([2H])N1CCC(n2cc(-c3cnc(N)c(OCc4cccc(C#CC(C)(C)O)c4)c3)cn2)CC1 [Compound A2]
Response given: 16.7 mL/min/kg

Shifting focus to the compound that follows.
Challenge: Form field: reported clearance of CN1CCC(n2cc(-c3cnc(N)c(OCc4cccc(C#CC(C)(C)O)c4)c3)cn2)CC1 [Compound A1, reference compound]
Response given: 18.9 mL/min/kg
